- test.name: Cell cytotoxicity test: protection of HT22 cells against glutamate toxicity (EC50) and cytotoxicity of the compounds (CC50), MTT
- Assay type: cell-based, mouse
- measurement.context: mouse, HT22 cells (mouse hippocampal neuron)
Where a name gives a salt, the structure may show the parent alone.
experimental.readout: CC50 at 24 h (µM)
# number only, unit µM dropped from output

Query CC(C)(C)C(=O)Nc1ccccc1Nc1cc2c(cc1O)[C@]13CCCC[C@@H]1[C@H](C2)NCC3 [Example 115, TFA salt] yields CC50 at 24 h of 53.6

Query CCNc1ccccc1Nc1cc2c(cc1O)[C@]13CCCC[C@@H]1[C@H](C2)NCC3 [Example 130, TFA salt] yields CC50 at 24 h of 1.6

Query Oc1cc2c(cc1Nc1cccc(F)c1O)C[C@@H]1NCC[C@]23CCCC[C@H]13 [Example 57, TFA salt] yields CC50 at 24 h of 5.5

Query Oc1cc2c(cc1N1CCCC1)C[C@@H]1NCC[C@]23CCCC[C@H]13 [Example 22, TFA salt] yields CC50 at 24 h of 80.5

Query Oc1cc2c(cc1Nc1ccc(C(F)(F)F)cc1)C[C@@H]1NCC[C@]23CCCC[C@H]13 [Example 35, TFA salt] yields CC50 at 24 h of 52.8

Query Oc1cc2c(cc1Nc1ccccn1)C[C@@H]1NCC[C@]23CCCC[C@H]13 yields CC50 at 24 h of 41.5

Query O=C(Nc1ccccc1)Nc1ccccc1Nc1cc2c(cc1O)[C@]13CCCC[C@@H]1[C@H](C2)NCC3 [Example 122, TFA salt] yields CC50 at 24 h of 33.8

Query Oc1cc2c(cc1Nc1ccc(Cl)cc1)C[C@@H]1NCC[C@]23CCCC[C@H]13 [Example 25, TFA salt] yields CC50 at 24 h of 1.87

Query Oc1cc2c(cc1Nc1ccccc1)C[C@@H]1NCC[C@]23CCCC[C@H]13 [Example 30, TFA salt] yields CC50 at 24 h of 7.79

Query Oc1cc2c(cc1Nc1ccc(Br)cc1)C[C@@H]1NCC[C@]23CCCC[C@H]13 [Example 33, TFA salt] yields CC50 at 24 h of 1.67

Query CCCC(CCC)Nc1cc2c(cc1O)[C@]13CCCC[C@@H]1[C@H](C2)NCC3 [Example 89, TFA salt] yields CC50 at 24 h of 1.94

Query CCCN(CCC)c1cc2c(cc1O)[C@]13CCCC[C@@H]1[C@H](C2)NCC3 [Example 96, TFA salt] yields CC50 at 24 h of 3.49

Query CCCCc1cc2c(cc1O)[C@]13CCCC[C@@H]1[C@H](C2)NCC3 [Example 83, (+)-2-Butyl-3-hydroxymorphinan TFA salt] yields CC50 at 24 h of 51.5

Query Oc1cc2c(cc1-c1ccc(F)cc1)C[C@@H]1NCC[C@]23CCCC[C@H]13 [Example 77, TFA salt] yields CC50 at 24 h of 8.3

The reported numbers originate from patent US20120122848A1.
